The measured values listed here are drawn from PubChem BioAssay.

- Test name: inhibition of 3D7 malaria parasite growth – strain 3D7 (AID 2306);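 note: 0% = DMSO wells and 100% = chloroquine plus artemisinin control wells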
- Protocol conditions: P. falciparum 3D7 erythrocytic growth, LDH absorbance, 72 h; at 2 µM; hits give high values
Activity calls are given as the source filed them. The rule behind the calls is not given here.
Overview of reported growth inhibition across a group of molecules:

A selection of reference data follows.
{"columns": ["Molecule", "growth inhibition"],
 "data": [
  ["Cc1ccnc(Nc2nc(-c3ccccn3)cs2)c1", "100% (active)"],
  ["COc1ccccc1C1CCN(CCCCNC(=O)c2ccc(/C=C/c3cc(Cl)cc(Cl)c3)cc2)CC1", "96% (active)"],
  ["O=C1COC2(CN1C1CCN(Cc3ccc(O)c(Cl)c3)C1)c1ccccc1-c1ccccc12 (centres undefined)", "93% (active)"],
  ["Cc1ccc2c(NN=Cc3ccccc3[N+](=O)[O-])cc(C)nc2c1", "102% (active)"],
  ["Cc1ccc(-c2cc(C(=O)Nc3ccc(S(=O)(=O)N4CC(C)OC(C)C4)cc3)[nH]n2)c(O)c1 (centres undefined)", "91% (active)"]
]}

### Prompt Supply growth inhibition value. Item: CCCC1N=C(N)N=C(N)N1c1ccc(C)c(C)c1 (centres undefined)
### Response 95% (active)

### Prompt Supply growth inhibition value. Item: COc1ccc(-c2csc(C(=O)NC3CCC(N4CCC(c5ccccc5C)CC4)CC3)c2)cc1 (centres undefined)
### Response 101% (active)

### Prompt Supply growth inhibition value. Item: `CC(C)(C)c1ccc(NC(=O)c2cccc(CN3CCCN(Cc4cccc(O)c4)CC3)c2)cc1`
### Response 101% (active)

### Prompt Supply growth inhibition value. Item: `Cc1cccc(CNc2nc(C)cc(N[C@@H](CC(C)C)C(=O)NCCOc3ccccc3)n2)c1`
### Response 93% (active)

### Prompt Supply growth inhibition value. Item: `O=C(Nc1cccc(-c2cccc(-c3nc4ccc(F)cc4[nH]3)c2)c1)Nc1ccc(F)c(F)c1F`
### Response 100% (active)

* * *

- Tested on: L-lactate dehydrogenase (Plasmodium falciparum (isolate CDC / Honduras)) (UniProt Q27743)
- Sequence (Q27743 whole entry, looked up): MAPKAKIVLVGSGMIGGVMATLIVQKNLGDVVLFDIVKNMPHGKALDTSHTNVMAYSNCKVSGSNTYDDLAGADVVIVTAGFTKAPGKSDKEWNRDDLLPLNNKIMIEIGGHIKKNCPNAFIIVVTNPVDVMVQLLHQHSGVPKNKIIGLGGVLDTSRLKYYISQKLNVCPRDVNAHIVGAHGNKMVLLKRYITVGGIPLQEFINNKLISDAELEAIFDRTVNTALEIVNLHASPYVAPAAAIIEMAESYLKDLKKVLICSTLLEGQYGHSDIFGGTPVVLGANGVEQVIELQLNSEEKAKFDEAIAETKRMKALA
- Test name: PfLDH activity inhibition – cell lysate, 3D7 strain, counter-screen for P. falciparum growth inhibition project (AID 2304);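 note: 0% = vehicle and 100% = reference inhibitor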
- Protocol conditions: P. falciparum 3D7 crude extract, LDH APAD/NBT absorbance; at 2 µM; hits give high values
Overview of reported inhibition across a group of molecules:
Give the quantity in %, number only.

{"columns": ["Line notation", "inhibition, %"],
 "data": [
  ["CCCn1c(Sc2ccc(C#N)c([N+](=O)[O-])c2)nnc1-c1ccc(Cl)cc1", -3],
  ["CN(C)CCNC(=O)c1ccc(-c2ccc3c(Nc4ccccc4)c(C(N)=O)cnc3c2)cc1", 6],
  ["CC1(C)[C@H]2C=C(CN3CCC(NC(=O)Nc4ccc(Cl)c(Cl)c4)CC3)[C@@H]1CC2", 2]
]}

### Prompt Supply inhibition value. Item: `COc1ccc2nccc(N(C)CC3(O)CCN(CCc4ccc5c(c4)NC(=O)CS5)CC3)c2n1`
### Response 1

* * *

Overview of reported growth inhibition across a group of compounds:
- Test name: inhibition of 3D7 malaria parasite growth – strain 3D7 (AID 2306);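 note: 0% = DMSO wells and 100% = chloroquine plus artemisinin control wells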
- Protocol conditions: P. falciparum 3D7 erythrocytic growth, LDH absorbance, 72 h; at 2 µM; hits give high values
Give the quantity in %, number only.

A selection of reference data follows.
{"columns": ["Line notation", "growth inhibition, %"],
 "data": [
  ["COc1ccccc1C(=O)Nc1cccc(N2CCC(NCc3ccc(-n4cccn4)cc3)CC2)c1", 86],
  ["c1cc(CNCCc2ccncc2)cc(-c2csc(-c3nc4ccccc4[nH]3)c2)c1", 100],
  ["O=S(=O)(Nc1cc2c(cc1OCCCN1CCCCC1)CCNCC2)c1ccc(-c2ccc(Cl)cc2)cc1", 100]
]}

### Prompt Supply growth inhibition value. Item: `O=C(Nc1ccc2c(c1)CCC2)N[C@H]1CCN(CCCCCNC(=O)[C@@H]2C[C@H]2c2ccc(Cl)c(Cl)c2)C1`
### Response 86
